experiment: DAX1 (NR0B1) inhibitors on StAR promoter, primary screen, cell-based, luminescence, SF-1 (NR5A1), full-length DAX-1 (AID 652010); settings: HEK293T StAR-luciferase reporter, SF-1/DAX-1 repression relief; at 6.8 µM; hits give high values;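 note: 0% = DAX-1 cells with DMSO and 100% = cells lacking DAX-1 with DMSO; higher inhibition means more luminescence from relief of DAX-1 repression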
About 4,100 (1.1%) of roughly 370,000 compounds were called active. This excerpt belongs to a sample that is enriched for actives.
List of inhibition values.
Reply with just the number (in %).

>  <Compound>
O=C(COC(=O)Cc1ccccc1F)NCCc1ccccc1

>  <Meas Value>
1.4

$$$$
>  <Compound>
Cc1ccc(C)c(NC(=O)CCS(=O)(=O)c2ccccc2)c1

>  <Meas Value>
0.88

$$$$

Recorded inhibition of COc1ccc(CCNC(=O)COC(=O)Cc2ccccc2F)cc1 , please.
5.57

Another compound to look at: COC(=O)[C@]12C[C@H](CC(=O)NCCc3ccccc3OC)C(=O)N(Cc3ccccc3)C1=C[C@H](C(C)C)O[C@@H]2C1CC1
0.15

Another compound to look at: O=C(C1CCCN1S(=O)(=O)c1ccccc1)N1CCc2ccccc2C1 (stereo not given)
-0.56

---

assay: DAX1 (NR0B1) inhibitors on StAR promoter, primary screen, cell-based, luminescence, SF-1 (NR5A1), full-length DAX-1 (AID 652010); conditions: HEK293T StAR-luciferase reporter, SF-1/DAX-1 repression relief; at 6.8 µM; hits give high values;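 note: 0% = DAX-1 cells with DMSO and 100% = cells lacking DAX-1 with DMSO; higher inhibition means more luminescence from relief of DAX-1 repression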
About 4,100 (1.1%) of roughly 370,000 compounds were called active. The sample as a whole holds a higher share of actives than the screen did.
Readout: inhibition (%)
Reply with just the number (in %).

Would you please look over these solved cases?
>  <Compound>
CC(=NNC(N)=O)c1ccc(Cl)c(-n2cccc2)c1

>  <inhibition (%)>
-0.18

$$$$
>  <Compound>
Cc1ccc(-n2c(SCC(=O)Nc3ccc(S(=O)(=O)Nc4nccs4)cc3)nnc2-c2cccnc2)cc1

>  <inhibition (%)>
0.65

$$$$
>  <Compound>
COC(=O)[C@]12C[C@H](CC(=O)N3CCN(C(=O)C4CC4)CC3)C(=O)N(CCC3=CCCCC3)C1=C[C@H](C(C)C)O[C@@H]2C1CC1

>  <inhibition (%)>
-0.81

$$$$
>  <Compound>
COc1cccc(-c2nc3cc(C)ccc3o2)c1

>  <inhibition (%)>
4.5

$$$$

Recorded inhibition of O=[N+]([O-])c1ccc2c(c1)C(O)n1nc(-c3ccccc3)nc1S2 (stereo not given) , please.
-0.33

Another compound to look at: COc1cccc(-c2cnc(OC(C)(C)C)nc2OC(C)(C)C)c1
-0.07

Another compound to look at: COc1ccc(Nc2cc(=O)n(-c3ccccc3)c3c2c(=O)n(C)c(=O)n3C)cc1
0.33

Another compound to look at: COc1ccc(Nc2ccc3ccccc3c2)cc1
3.94

Another compound to look at: O=[N+]([O-])c1ccc2oc(-c3cccc(O)c3)nc2c1
5.24

Another compound to look at: COC(=O)C1C(=O)c2c([nH]c(C(=O)OCCSC)c2C)CC1C (stereo not given)
5.6

---

experiment: DAX1 (NR0B1) inhibitors on StAR promoter, primary screen, cell-based, luminescence, SF-1 (NR5A1), full-length DAX-1 (AID 652010); settings: HEK293T StAR-luciferase reporter, SF-1/DAX-1 repression relief; at 6.8 µM; hits give high values;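 note: 0% = DAX-1 cells with DMSO and 100% = cells lacking DAX-1 with DMSO; higher inhibition means more luminescence from relief of DAX-1 repression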
Among all 370,000 compounds or so, about 4,100 (1.1%) were called active. The sample holds actives, similar compounds and a random draw of the others, so the mix is not that of the screen.
Readout: inhibition

>  <Structure Notation>
COc1ccccc1CN(C)C(=O)c1cc2ccccc2o1

>  <inhibition>
-0.34% (inactive)

$$$$
>  <Structure Notation>
COc1ccc(C(=O)Nc2ccc(-n3nncc3C(C)(C)C)cc2)cc1

>  <inhibition>
-0.32% (inactive)

$$$$
>  <Structure Notation>
CCNc1nc(-c2cc3ccccc3o2)cs1

>  <inhibition>
4.18% (active)

$$$$
>  <Structure Notation>
Clc1ccccc1-c1cc(COc2ccc3ccccc3c2)no1

>  <inhibition>
0.4% (inactive)

$$$$
>  <Structure Notation>
COc1ccc(C(=O)OCC(=O)Nc2cc(C)on2)cc1F

>  <inhibition>
-1.4% (inactive)

$$$$
>  <Structure Notation>
Clc1ccc(-c2cc(C3CCNCC3)[nH]n2)c(Cl)c1

>  <inhibition>
-0.17% (inactive)

$$$$
>  <Structure Notation>
Clc1ccc(Cc2nnc(-c3cccs3)o2)cc1

>  <inhibition>
-0.54% (inactive)

$$$$
>  <Structure Notation>
CC(C)CNc1cccc2c1S(=O)(=O)N(Cc1cn(Cc3ccc(Cl)cc3)nn1)Cc1ccccc1O2

>  <inhibition>
-0.85% (inactive)

$$$$
>  <Structure Notation>
COC(=O)[C@]1(C#N)CC(=O)N(CC2CCCCC2)[C@@H]1c1ccccc1

>  <inhibition>
1.2% (inactive)

$$$$
>  <Structure Notation>
Cc1cc(NC(=O)COc2ccccc2C#N)no1

>  <inhibition>
4.34% (active)

$$$$

Recorded inhibition of COCCNC(=S)c1ccc(OC)cc1 , please.
0.05% (inactive)

Another compound to look at: COc1ccc(C(=O)NCC[N+](C)(C)C)cc1
4.67% (active)

Another compound to look at: Cc1cc(NC(=O)COn2nnc3ccccc32)no1
0.82% (inactive)

Another compound to look at: Clc1ccc(-c2cc(-c3ccccn3)on2)c(Cl)c1
3.68% (active)

Another compound to look at: COc1ccc(C(=O)NC2CCN(C(=O)Nc3ccc(F)cc3)CC2)cc1
-0.44% (inactive)

Another compound to look at: COc1ccc(-n2c(SCC(=O)Nc3ccc(C)c(Cl)c3)nc3ccccc3c2=O)cc1
-1.67% (inactive)

Another compound to look at: O=C(NNC(=S)NC1CCCCC1)c1ccccc1Cl
2.28% (inactive)

Another compound to look at: CCCCCCCCN1C(=O)[C@@H](CC(=O)NCCCC)C[C@@]2(C(=O)OC)C1=C[C@H](C(C)(C)C)O[C@@H]2C
1.52% (inactive)

Another compound to look at: COc1ccc(C(=O)NCCSc2ccccc2C)cc1
2.33% (inactive)

Another compound to look at: N#Cc1ccc(-c2nc3cc(C#N)c(C#N)cc3nc2-c2ccccc2)cc1C#N
-0.36% (inactive)

Another compound to look at: COC(=O)[C@]12C[C@H](CC(=O)N3CCOCC3)C(=O)N(Cc3ccc(Cl)cc3Cl)C1=C[C@H](COCc1ccccc1)O[C@@H]2C
-0.57% (inactive)

Another compound to look at: O=C(NC1CCCCCC1)C1CCN(C(=O)c2ccc(Cl)cc2)CC1
-1.38% (inactive)

Another compound to look at: CCOC(=O)[C@]12CCCCC/C=C\1N(Cc1ccc(OC)cc1)C(=O)[C@H]2CC(=O)N1CCOCC1
-0.42% (inactive)
